Test: Inhibition of Electron transport protein complex 1 in bovine heart submitochondrial particles assessed as NADH oxidase activity by spectrophotometric analysis
Parameters: species or system Bos taurus
Exercise: state measured pIC50 for each of the compounds provided.
Please report pIC50 as the negative decimal logarithm of the molar concentration, giving only the number.

Query: pIC50; subject: CCCCCCCC#CC[C@@H](O)[C@H]1CC[C@H]([C@H]2CC[C@H]([C@H](O)CC#CCCCCCCC)O2)O1
7.52

Consider next the compound CCCCCCCCCC[C@@H](O)[C@H]1CC[C@H]([C@H]2CC[C@H]([C@H](O)CCCCCCCCCC)O2)O1 [dleta-lac-Acetogenin] in the same way.
7.91

Consider next the compound CCCCc1ccc(OCCCCC[C@@H](O)[C@H]2CC[C@H]([C@H]3CC[C@H]([C@H](O)CCCCCOc4ccc(CCCC)cc4)O3)O2)cc1 in the same way.
7.71

Consider next the compound CCCCc1ccc(OCCC#CC[C@@H](O)[C@H]2CC[C@H]([C@H]3CC[C@H]([C@H](O)CC#CCCOc4ccc(CCCC)cc4)O3)O2)cc1 in the same way.
7.41

----------
System: A549
Experiment: Cytotoxicity against human A549 cells by MTT assay
Assay type: functional, cell-based
recordedMetric: IC50

Query: IC50; subject: CCCCCCCC#CC[C@@H](O)[C@H]1CC[C@H]([C@H]2CC[C@H]([C@H](O)CC#CCCCCCCC)O2)O1
13.2 µM

Consider next the compound CCCCc1ccc(OCCCCC[C@@H](O)[C@H]2CC[C@H]([C@H]3CC[C@H]([C@H](O)CCCCCOc4ccc(CCCC)cc4)O3)O2)cc1 in the same way.
> 16 µM

Consider next the compound CCCCCCCCCC[C@@H](O)[C@H]1CC[C@H]([C@H]2CC[C@H]([C@H](O)CCCCCCCCCC)O2)O1 in the same way.
> 20 µM

Consider next the compound CCCCc1ccc(OCCC#CC[C@@H](O)[C@H]2CC[C@H]([C@H]3CC[C@H]([C@H](O)CC#CCCOc4ccc(CCCC)cc4)O3)O2)cc1 in the same way.
> 16 µM
